- Target Under Test: human ether-à-go-go-related gene (hERG) potassium channel (human, UniProt Q12809);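 also: peak tail current of the secondary pulse compared with the same well before compound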
- Sequence (Q12809 whole entry, looked up): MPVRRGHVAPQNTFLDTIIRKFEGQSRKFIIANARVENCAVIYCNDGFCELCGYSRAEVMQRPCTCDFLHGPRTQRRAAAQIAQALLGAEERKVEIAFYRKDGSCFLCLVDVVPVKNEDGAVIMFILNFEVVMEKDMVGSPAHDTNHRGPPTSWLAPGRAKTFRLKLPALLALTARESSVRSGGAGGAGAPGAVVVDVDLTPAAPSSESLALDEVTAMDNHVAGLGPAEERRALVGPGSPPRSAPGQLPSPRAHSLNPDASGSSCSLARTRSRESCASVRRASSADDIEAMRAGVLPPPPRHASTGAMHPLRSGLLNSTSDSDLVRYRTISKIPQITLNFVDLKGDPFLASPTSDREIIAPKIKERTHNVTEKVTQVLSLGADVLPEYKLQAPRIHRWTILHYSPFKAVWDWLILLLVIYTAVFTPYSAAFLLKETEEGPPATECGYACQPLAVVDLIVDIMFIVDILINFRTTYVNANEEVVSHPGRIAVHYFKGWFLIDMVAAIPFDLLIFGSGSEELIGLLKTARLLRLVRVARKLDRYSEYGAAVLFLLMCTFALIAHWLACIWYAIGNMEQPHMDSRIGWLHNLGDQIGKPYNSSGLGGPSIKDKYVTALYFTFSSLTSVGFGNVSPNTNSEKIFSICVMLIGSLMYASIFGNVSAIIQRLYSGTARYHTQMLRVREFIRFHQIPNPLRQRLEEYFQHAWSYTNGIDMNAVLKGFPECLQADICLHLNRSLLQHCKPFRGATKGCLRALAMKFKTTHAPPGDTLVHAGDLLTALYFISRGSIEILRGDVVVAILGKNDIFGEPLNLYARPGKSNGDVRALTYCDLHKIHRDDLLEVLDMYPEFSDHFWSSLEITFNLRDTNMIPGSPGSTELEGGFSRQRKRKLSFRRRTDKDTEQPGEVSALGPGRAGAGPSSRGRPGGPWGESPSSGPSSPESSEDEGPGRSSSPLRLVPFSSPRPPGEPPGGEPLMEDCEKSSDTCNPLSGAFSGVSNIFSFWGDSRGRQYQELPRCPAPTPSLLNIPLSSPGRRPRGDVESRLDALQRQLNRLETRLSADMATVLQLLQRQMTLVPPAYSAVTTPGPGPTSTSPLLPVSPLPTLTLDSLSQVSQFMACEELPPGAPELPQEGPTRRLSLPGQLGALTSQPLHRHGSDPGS
- Protocol Text: primary screen, population patch clamp on CHO cells stably expressing hERG; higher = less effect of the substance
The whole screen tested about 310,000 compounds, of which about 14,000 (4.5%) showed an effect of 50% or more. The effect is printed as a negative number. The sample holds strong results, similar compounds and a random draw of the others, so the mix is not that of the screen.
# hERG current change (%, negative = inhibition) at 10uM >= -20% gives Y, anything below gives N

Please review the entries below; each comes with its answer.
Compound	Discrete Label
Cc1ccc(OCCCCNC(C)(C)C)c([N+](=O)[O-])c1.O=C(O)C(=O)O	Y
CCOC(=O)C1CCN(C(=O)c2sc3ncnc(N4CCC(C)CC4)c3c2C)CC1	N
O=C(CSc1nc2ccccc2c(=O)n1-c1ccccc1Cl)Nc1cccc(S(=O)(=O)N2CCOCC2)c1	Y
CCOC(=O)C1CCCN(C(=O)c2sc3nc(C)nc(N4CCOCC4)c3c2C)C1 (stereo not shown)	Y

Dear colleague, could you confirm whether Nc1nc(SCc2nc3sc4c(c3c(=O)[nH]2)CCCC4)n[nH]1 has hERG current change (%, negative = inhibition) at 10uM at or above -20%?
Y

Say whether O=C(c1cccnc1)N1N=C(C2CCCCC2)CC1(O)C(F)(F)F (stereo not shown) shows hERG current change (%, negative = inhibition) at 10uM of -20% or more.
Y

Hi team, for CCOC(=O)C1CCN(C(=O)c2sc3nc(C)nc(N4CCC(C)CC4)c3c2C)CC1 , is the recorded hERG current change (%, negative = inhibition) at 10uM at or above -20%?
N

Form field: hERG current change (%, negative = inhibition) at 10uM at least -20%? Entry: COc1ccc(C(=O)c2nc3ccccc3n2C(C)C)cc1OC
Y

Determine whether this compound has hERG current change (%, negative = inhibition) at 10uM no lower than -20%: CCN1CCN(C(=O)c2sc3nc(C)nc(N4CCC(C)CC4)c3c2C)CC1
Y

# check: hERG current change (%, negative = inhibition) at 10uM of CC(=O)Nc1ccc2c(COC(=O)CC3Sc4ccccc4NC3=O)cc(=O)oc2c1 (stereo not shown) is greater than or equal to -20%
Y

Evaluate Clc1ccc(C2[C@H]3CN(CC4CCCCC4)[C@H](c4ccccc4)C34CC2(c2cccnc2)C4)cn1 (stereo partly shown) : hERG current change (%, negative = inhibition) at 10uM at minimum -20%?
N

Is reported hERG current change (%, negative = inhibition) at 10uM greater than or equal to -20% here: O=C(CN1CCCC1c1cccs1)Nc1cccc(S(=O)(=O)N2CCCC2)c1 (stereo not shown)
Y

Quick check: does O=C(NC(=S)Nc1ccc(-c2ccc(CO)o2)cc1)c1cccs1 have hERG current change (%, negative = inhibition) at 10uM greater than or equal to -20%?
Y

Tell me whether hERG current change (%, negative = inhibition) at 10uM is at least -20% here: O=C(NC(=S)Nc1ccc(CN2CCOCC2)cc1)c1ccc2c(c1)OCCO2
Y

Has Cc1c(C(=O)N2CCN(c3ccccc3)CC2)sc2ncnc(N3CCC(C)CC3)c12 a recorded hERG current change (%, negative = inhibition) at 10uM greater than or equal to -20%?
N

Could you tell me if the measured hERG current change (%, negative = inhibition) at 10uM of O=C(CSc1nc2ccccc2c(=O)n1CCCN1CCOCC1)Nc1cccc(S(=O)(=O)N2CCCCCC2)c1 reaches -20% or more?
N

API: above_or_equal(metric=hERG current change (%, negative = inhibition) at 10uM, cutoff=-20%) for item CCN(CC)C(=O)Oc1nnc(SC(C)C)n1-c1ccc(Cl)c(Cl)c1
Y

Item COc1ccc2c(COC(=O)CC3Sc4ccccc4NC3=O)cc(=O)oc2c1 (stereo not shown) with hERG current change (%, negative = inhibition) at 10uM of -20% or above?
N

Quick check: does CCCCOc1ccc(C(=O)NCC(=O)N2CC=C(c3ccccc3)CC2)cc1 have hERG current change (%, negative = inhibition) at 10uM greater than or equal to -20%?
Y
